reported_endpoint: melting point

- COC(=O)c1ncc2cc(Cc3ccc(F)cc3)cnc2c1O [Compound A-2]: 218 to 219 °C
- COC(=O)c1cc(C(=O)NC2CCNCC2)c2cc(Cc3ccc(F)cc3)cnc2c1O: 232 to 233 °C
- CCN(c1cc(C(=O)OC)c(O)c2ncc(Cc3ccc(F)cc3)cc12)S(C)(=O)=O: 149 to 150 °C

Incoming: Give its melting point value. Item: COC(=O)c1cc(Br)c2cc(Cc3ccc(F)cc3)cnc2c1O
Outgoing: 152 °C

###

Catalogue of melting point readings, one per entry.

• O=C1CCc2cc3cc(Cc4ccc(F)cc4)cnc3c(O)c21 = 195 to 197 °C
• COC(=O)c1cc(C(=O)NCCOC(C)C)c2cc(Cc3ccc(F)cc3)cnc2c1O = 175 to 176 °C
• COC(=O)CNC(=O)c1cc(C(=O)OC)c(O)c2ncc(Cc3ccc(F)cc3)cc12 = 209 to 210 °C
• C#CCNC(=O)c1cc(C(=O)OC)c(O)c2ncc(Cc3ccc(F)cc3)cc12 = 192 to 193 °C
• CCOC(=O)CNNC(=O)c1cc(C(=O)OC)c(O)c2ncc(Cc3ccc(F)cc3)cc12 = 184 to 185 °C

Incoming: Give its melting point value. Item: NC(=O)c1cc(C(=O)O)c(O)c2ncc(Cc3ccc(F)cc3)cc12
Outgoing: 265 to 266 °C

Incoming: Subsequent entry: CNC(=S)Nc1cc(C(=O)OC)c(O)c2ncc(Cc3ccc(F)cc3)cc12
Outgoing: 189 to 191 °C

Incoming: Subsequent entry: COC(=O)c1nc(C#CCNS(C)(=O)=O)c2cc(Cc3ccc(F)cc3)cnc2c1O
Outgoing: 223 to 225 °C

Incoming: Subsequent entry: CN(C)NC(=O)c1nc(-c2ccc(CO)cc2)c2cc(Cc3ccc(F)cc3)cnc2c1O
Outgoing: 219 to 221 °C

###

target: HIV integrase (Human immunodeficiency virus type 1 group M subtype B)
protocol: integrase inhibition assay (microtiter plate, substrate DNA / target DNA)
Type: biochemical
condition_parameters: integrase 30 pmol, incubated at 30° C. for 1 hour, OD at 405 nm; concentration at percent inhibition 50%; read-out: MIA, IC50 (ug/ml) (converted)
Cut-off 700 nM on IC50: below means Met, at or above means Not met.

• COC(=O)c1nc(C(=O)N2CCN(C)CC2)c2cc(Cc3ccc(F)cc3)cnc2c1O = Not met
• COC(=O)c1cc(CO)c2cc(Cc3ccc(F)cc3)cnc2c1O = Met
• COC(=O)c1cc(NC2CCCCC2)c2cc(Cc3ccc(F)cc3)cnc2c1O = Not met

We next turn to a different molecule, shown below.
Incoming: Please check: IC50 for COC(=O)c1nc(NC(C)=O)c2cc(Cc3ccc(F)cc3)cnc2c1O , strictly under 700 nM or not?
Outgoing: Met

###

Catalogue of melting point readings, one per entry.

Solved cases (3 shown):
- COC(=O)c1cc(C(=O)NNS(C)(=O)=O)c2cc(Cc3ccc(F)cc3)cnc2c1O: > 250 °C
- COC(=O)c1cc(C(=O)O)c2cc(Cc3ccc(F)cc3)cnc2c1O.NCCN: 164 °C
- CC(=O)N1CCC(OC(=O)c2cc(C(=O)NN(C)C)c3cc(Cc4ccc(F)cc4)cnc3c2O)CC1: 92 to 93 °C

Incoming: Give its melting point value. Item: CC(=O)c1cc(C(=O)O)c2cc(Cc3ccc(F)cc3)cnc2c1O
Outgoing: 239 to 242 °C

Incoming: Subsequent entry: CC(=O)N1CCC(OC(=O)c2cc(C(=O)O)c3cc(Cc4ccc(F)cc4)cnc3c2O)CC1
Outgoing: 230 to 232 °C
